Catalogue of pA2 /GPI (antagonist potency) values
- System: isolated guinea pig ileum
- Type: cell-based
- ASSAY SETUP: isolated guinea pig ileum; number of tissues in parentheses
Square brackets hold non-standard residues; d marks the D form. Peptide text beside a SMILES is read from it. Hyp = O=C(O)[C@@H]1C[C@@H](O)CN1; 2Thi = N[C@@H](Cc1cccs1)C(=O)O

Completed entries (count: 3):
COMPOUND	OBSERVED VALUE
CC[C@H](C)[C@H](NC(=O)[C@H](CCCNC(=N)N)NC(=O)[C@H](Cc1cccs1)NC(=O)[C@@H](Cc1ccccc1)NC(=O)[C@H](CO)NC(=O)[C@H](Cc1cccs1)NC(=O)CNC(=O)[C@@H]1CCCN1C(=O)[C@@H]1CCCN1C(=O)[C@H](CCCNC(=N)N)NC(=O)[C@H](N)CCCNC(=N)N)C(=O)N[C@@H](Cc1ccc(O)cc1)C(=O)O [Example 66] (H-[dR]RPPG[2Thi]S[dF][2Thi]RIY-OH)	5.8
CC[C@H](C)[C@H](NC(=O)[C@H](CCCNC(=N)N)NC(=O)[C@H](Cc1ccccc1)NC(=O)[C@@H](Cc1ccccc1)NC(=O)[C@H](CO)NC(=O)[C@H](Cc1ccccc1)NC(=O)CNC(=O)[C@@H]1CCCN1C(=O)[C@@H]1CCCN1C(=O)[C@H](CCCNC(=N)N)NC(=O)[C@H](N)CCCNC(=N)N)C(=O)N[C@@H](Cc1ccc(O)cc1)C(=O)O [Example 64] (H-[dR]RPPGFS[dF]FRIY-OH)	6.2
CC[C@H](C)[C@H](NC(=O)[C@H](CCCNC(=N)N)NC(=O)[C@H](Cc1cccs1)NC(=O)[C@@H](Cc1ccccc1)NC(=O)[C@H](CO)NC(=O)[C@H](Cc1cccs1)NC(=O)CNC(=O)[C@@H]1C[C@@H](O)CN1C(=O)[C@@H]1CCCN1C(=O)[C@H](CCCNC(=N)N)NC(=O)[C@H](N)CCCNC(=N)N)C(=O)N[C@@H](Cc1ccc(O)cc1)C(=O)O [Example 68] (H-[dR]RP[Hyp]G[2Thi]S[dF][2Thi]RIY-OH)	6.7

Prompt: What value of pA2 /GPI (antagonist potency) has been reported for the following compound? N=C(N)NCCC[C@@H](N)C(=O)N1CCC[C@H]1C(=O)N1C[C@H](O)C[C@H]1C(=O)NCC(=O)N[C@@H](Cc1cccs1)C(=O)N[C@@H](CO)C(=O)N[C@H](Cc1ccccc1)C(=O)N[C@@H](Cc1cccs1)C(=O)N[C@@H](CCCNC(=N)N)C(=O)O [Example 8, DArg-Pro-Hyp-Gly-Thi-Ser-DPhe-Thi-Arg] (H-[dR]P[Hyp]G[2Thi]S[dF][2Thi]R-OH)
Response: 5.4

Data provenance is patent US4923963A.
